The values you see were collected from the supplement of paper PMC10307832.

test system: A-427; experiment: relative viability (nuclei count vs DMSO), 5 days (fraction); higher = more cells survive; settings: first compound 0.03162 µM
Catalogue of relative viability values
In your answer, state the number alone without any accompanying words.

- Compound: "CCN(CC)CCCCNc1ncc2cc(-c3cc(OC)cc(OC)c3)c(NC(=O)NC(C)(C)C)nc2n1 + CCNC(=O)c1noc(-c2cc(C(C)C)c(O)cc2O)c1-c1ccc(CN2CCOCC2)cc1 [Luminespib] (partner 0.01 µM)"
  relative viability: 1.01
- Compound: "CCN(CC)CCCCNc1ncc2cc(-c3cc(OC)cc(OC)c3)c(NC(=O)NC(C)(C)C)nc2n1 + COc1cccc2cc(-c3nc([C@H]4CC[C@H](C(=O)O)CC4)n4ncnc(N)c34)[nH]c12 [OSI-027] (partner 0.5 µM)"
  relative viability: 0.435

[ask] Fill in the blank: the reported relative viability of CCN(CC)CCCCNc1ncc2cc(-c3cc(OC)cc(OC)c3)c(NC(=O)NC(C)(C)C)nc2n1 + Cc1cc(Nc2cc(N3CCN(C)CC3)nc(Sc3ccc(NC(=O)C4CC4)cc3)n2)n[nH]1 [Tozasertib] (partner 0.1 µM) is ____.
[reply] 0.206
